# system: Muscarinic acetylcholine receptor M2 (Homo sapiens, UniProt P08172)
# Sequence (P08172 whole entry): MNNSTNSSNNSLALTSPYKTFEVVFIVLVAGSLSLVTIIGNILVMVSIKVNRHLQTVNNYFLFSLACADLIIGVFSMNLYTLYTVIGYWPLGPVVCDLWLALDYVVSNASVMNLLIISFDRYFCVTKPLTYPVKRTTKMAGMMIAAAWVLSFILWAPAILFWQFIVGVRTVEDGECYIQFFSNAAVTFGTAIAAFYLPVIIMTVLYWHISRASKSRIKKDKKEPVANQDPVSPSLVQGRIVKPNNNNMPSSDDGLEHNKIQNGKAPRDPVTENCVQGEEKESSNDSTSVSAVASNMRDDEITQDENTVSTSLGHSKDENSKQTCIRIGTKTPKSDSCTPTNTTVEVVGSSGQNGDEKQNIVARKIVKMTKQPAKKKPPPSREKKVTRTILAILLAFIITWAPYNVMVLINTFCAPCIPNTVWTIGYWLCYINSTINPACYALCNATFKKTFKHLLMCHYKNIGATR
# experimental.details: Binding affinity to human muscarinic M2 receptor expressed in […] cells incubated in dark at 22 degree C for 2 hrs by FACSCalibur flow cytometric saturation binding study
# Assay type: cell-based
# experimental.setup: read-out: pKd (converted)
value.type: Kd (nM)

- molecule: "CC1(C)C(/C=C/C=C/C=C2/N(CCCCCC(=O)NCc3cc(C(=O)NCCNC(=O)CCc4cn(CCCCC5CCN(CC(=O)N6c7ccccc7NC(=O)c7ccccc76)CC5)cn4)cc(C(=O)NCCNC(=O)CCc4cn(CCCCC5CCN(CC(=O)N6c7ccccc7NC(=O)c7ccccc76)CC5)cn4)c3)c3ccc(S(=O)(=O)O)cc3C2(C)C)=[N+](CCCCS(=O)(=O)[O-])c2ccccc21.O=C(O)C(F)(F)F.O=C(O)C(F)(F)F.O=C(O)C(F)(F)F"
  unit.string: "nM"
  endpoint.result: 3.09

(A) CC1(C)C(/C=C/C=C/C=C2/N(CCCCCC(=O)NCCN3CCN(CCCCC4CCN(CC(=O)N5c6ccccc6NC(=O)c6ccccc65)CC4)CC3)c3ccccc3C2(C)C)=[N+](CCCCS(=O)(=O)[O-])c2ccccc21
(B) CC1(C)C(/C=C/C=C/C=C2/N(CCCCCC(=O)NCCNC(=O)CCc3cn(CCCCC4CCN(CC(=O)N5c6ccccc6NC(=O)c6ccccc65)CC4)cn3)c3ccc(S(=O)(=O)O)cc3C2(C)C)=[N+](CCCCS(=O)(=O)[O-])c2ccccc21.O=C(O)C(F)(F)F
(C) CC1(C)C(/C=C/C=C/C=C2/N(CCCCCC(=O)NCCN3CCN(CCCCC4CCN(CC(=O)N5c6ccccc6NC(=O)c6ccccc65)CC4)CC3)c3ccc(S(=O)(=O)O)cc3C2(C)C)=[N+](CCCCS(=O)(=O)[O-])c2ccccc21.O=C(O)C(F)(F)F.O=C(O)C(F)(F)F
Ask: Write the entries in order, lowest recorded Kd first. In plain terms: list the labels in the order you were asked to.
Reply: C, A, B
